Entries and their CC50 values follow.
experiment: Visual cytotoxicity in stationary uninfected MRC-5 cells; format: cell-based; conditions: human, AD169/MRC5 system, visual observation of stationary uninfected MRC5 cells, read-out: TC50 (median toxic concentration)
Supply the numeric figure in µg/mL, leaving out any unit text.

Reference set, count: 3
CCCCC(CCCC)n1c(=O)sc2c(=O)[nH]c(N)nc21; 178
CCCCCCn1c(=O)sc2c(=O)[nH]c(N)nc21; 1.2
C=CCCCn1c(=O)sc2c(=O)[nH]c(N)nc21; 68

Can you look up the measured CC50 of CCC(CC)n1c(=O)sc2c(=O)[nH]c(N)nc21 for me?
32

Can you look up the measured CC50 of CCCCCn1c(=O)sc2c(=O)[nH]c(N)nc21 for me?
4

Can you look up the measured CC50 of CCCCCC(CCCCC)n1c(=O)sc2c(=O)[nH]c(N)nc21 for me?
52

###

experiment: Visual cytotoxicity in stationary uninfected HFF cells; type: cell-based; settings: human; Towne/HFF system; visual observation of stationary uninfected HFF cells; read-out: TC50 (median toxic concentration)
OBSERVATION TYPE: CC50

Reference set, count: 2
Nc1nc2c(ncn2COC(CO)CO)c(=O)[nH]1 [Ganciclovir, reference compound]; > 100 µg/mL
CCC=CCn1c(=O)sc2c(=O)[nH]c(N)nc21; > 100 µg/mL

Can you look up the measured CC50 of C=CCCCn1c(=O)sc2c(=O)[nH]c(N)nc21 for me?
> 100 µg/mL

###

Entries and their CC50 values follow.
assay: Visual cytotoxicity in stationary uninfected MRC-5 cells; assay type: cell-based; details: human, AD169/MRC5 system, visual observation of stationary uninfected MRC5 cells, read-out: TC50 (median toxic concentration)

Nc1nc2c(ncn2COC(CO)CO)c(=O)[nH]1 [Ganciclovir, reference compound]; > 900 µg/mL
CCC=CCn1c(=O)sc2c(=O)[nH]c(N)nc21; > 100 µg/mL

Let us move to another entry and its CC50.
Can you look up the measured CC50 of CC(C)=CCn1c(=O)sc2c(=O)[nH]c(N)nc21 for me?
> 100 µg/mL
